test system: UACC-257; assay: NCI tumour cell line growth inhibition, 48 h
Calls of active or inactive are those of the source. Rule as the data show it: active = GI50 up to about 1.1 µM and inactive = higher.
// allowed return values: active, inactive

{"Compound": "CSC(CC(=O)O)C(=O)O (configuration not stated)", "Label Class": "inactive"}
{"Compound": "CN(C)CCNC(=O)c1cccc2nc3c(Cl)cccc3nc12", "Label Class": "inactive"}
{"Compound": "COC1(OC)c2ccccc2C2(O)c3ccccc3C(=O)C12 (configuration not stated)", "Label Class": "inactive"}
{"Compound": "COC(=O)c1ccccc1N1C(=O)Cc2ccccc2C1=O", "Label Class": "inactive"}
{"Compound": "O=c1c2ccccc2oc2nc3n(c(=O)c12)CCCS3", "Label Class": "inactive"}

Request: Assay result, entry O=C(NN1C(=O)CS(=O)(=O)C1c1cccc(F)c1)c1ccncc1 (configuration not stated) — outcome?
Response: inactive

Request: Assay result, entry `CCN(CC)/C(Cl)=C(Cl)\C(=C1\Nc2ccc(OC)cc21)[N+](=O)[O-]` — outcome?
Response: inactive

Request: Assay result, entry CC1(C)OC(=O)C(=C2CC(c3ccccc3)c3ccccc32)C(=O)O1 (configuration not stated) — outcome?
Response: inactive

###

Record form. Attribute: GI50. Fill in for each entry.
test system: OVCAR-3; assay: NCI tumour cell line growth inhibition, 48 h
Active and inactive are the calls of the source. No stated cut-off is given here; in the data, active = GI50 up to about 1.1 µM and inactive = higher.

{"Compound": "COc1ccc(N2C(=O)C3c4[nH]c5cc(Cl)ccc5c4C4CCC(C(C)(C)C)CC4C3C2=O)cc1 (stereo not given)", "GI50": "67.6 µM (inactive)"}
{"Compound": "C[C@]12CCC3[C@@H](CC[C@@H]4c5nonc5CC[C@]34C)C1CCC(=O)N2 (stereo not given in full)", "GI50": "> 100 µM (inactive)"}
{"Compound": "NCc1c(C(N)=O)ncn1Cc1ccccc1", "GI50": "> 100 µM (inactive)"}
{"Compound": "COc1cc2cc(OC)c3cc4c(cc3c2c(OC)c1OC)OCO4", "GI50": "41.5 µM (inactive)"}

Provide the reported GI50 of each entry below, same order.
1. CC(=O)NNc1nc(C)c(C(/C=C/c2ccc(Cl)cc2)=N/NC(=O)C[N+](C)(C)C)s1
2. Nc1ccc(C(=O)N/C(=C\c2ccc3c(c2)OCO3)c2nc3ccc4c(c3[nH]2)C(=O)c2ccccc2C4=O)cc1
3. N#C/C(=C1\SC(C(N)=O)=C(N)N1c1ccccc1)c1nc2ccccc2[nH]1

Response:
> 100 µM (inactive)
32.9 µM (inactive)
> 100 µM (inactive)

Provide the reported GI50 of each entry below, same order.
1. COc1c(C(=O)O)oc2c(OC)cccc12
2. CC(C)(C)OC(=O)NC(CCCCNC(=O)OCc1ccccc1)C(=O)NCCNc1ccc(NCCNC(=O)C(CCCCNC(=O)OCc2ccccc2)NC(=O)OC(C)(C)C)c2c1C(=O)c1ccccc1C2=O (stereo not given)
3. CCCCCCCC/C=C\CCCCCCC/C=C1\C[C@](/C=C/C(=O)OC)(CO)OC1=O
4. Cc1cc(S(=O)(=O)n2ccnc2O)c(SCCCN(C)C)cc1Cl
5. COC(=O)[C@H](Cc1ccccc1)NC(=O)N1CCN(C(=O)N[C@@H](Cc2ccccc2)C(=O)OC)CCN(C(=O)N[C@@H](Cc2ccccc2)C(=O)OC)CC1
6. COc1ccc2cc(C(=O)NCCc3ccccc3)ccc2c1OC
7. CCOC(=O)Cc1c(C(=O)OCC)[n+]([O-])c2cc(Cl)c(Cl)cc2[n+]1[O-]
8. O=S(=O)(O)C1CCC(O)C2NCCCC21 (stereo not given)

Response:
> 100 µM (inactive)
> 79.4 µM (inactive)
5.32 µM (inactive)
> 100 µM (inactive)
> 100 µM (inactive)
46.1 µM (inactive)
1.87 µM (inactive)
> 100 µM (inactive)

Provide the reported GI50 of each entry below, same order.
1. CC1C(=O)C(C)C(c2ccccc2)N(N=O)C1c1ccccc1 (stereo not given)
2. COC(=O)/C=C1/OC(c2ccc(C)cc2C)=CC1=O

Response:
1: 197 µM (inactive); 2: 26.9 µM (inactive)

###

test system: SK-MEL-5; assay: NCI tumour cell line growth inhibition, 48 h
The source made the active and inactive calls. Cut-off read from the data, not from the text of the source: active = GI50 up to about 1.1 µM and inactive = higher.
Assay Endpoint: GI50

Below: 5 compounds and their reported GI50.
{"Compound": "CSC(CC(=O)O)C(=O)O (stereo not given)", "GI50": "> 100 µM (inactive)"}
{"Compound": "COc1c(C(=O)O)oc2c(OC)cccc12", "GI50": "> 100 µM (inactive)"}
{"Compound": "CCCCCCCC/C=C\\CCCCCCC/C=C1\\C[C@](/C=C/C(=O)OC)(CO)OC1=O", "GI50": "3.31 µM (inactive)"}
{"Compound": "S=C=NCc1ccccc1 [BENZYL ISOTHIOCYANATE]", "GI50": "2.81 µM (inactive)"}
{"Compound": "O=C(c1cccnc1)N1N=C(c2ccc3c(c2)OCO3)CC1(O)c1cc(F)c(Cl)cc1Cl (stereo not given)", "GI50": "15 µM (inactive)"}

Provide the reported GI50 of each entry below, same order.
1. O=c1nc2sc3ccc4ccccc4c3n2nc1-c1ccccc1
2. N=c1oc2c(Cl)cc(Cl)cc2cc1C(=O)Nc1cccc2ccccc12
3. N#C/C(=C1\SC(C(N)=O)=C(N)N1c1ccccc1)c1nc2ccccc2[nH]1
4. CCCCCCCCCCCCCCCCCCNc1ccn(C2OC(CO)C(O)C2O)c(=O)n1 (stereo not given)

Response:
1. 59.2 µM (inactive)
2. 37.9 µM (inactive)
3. > 100 µM (inactive)
4. > 100 µM (inactive)

Provide the reported GI50 of each entry below, same order.
1. Cc1cn(C2CC(O)C(Cn3nncc3Cn3ncc(=O)[nH]c3=O)O2)c(=O)[nH]c1=O (stereo not given)
2. CC1=CCCC2C1(C)CCC(C)C2(C)Cc1cc(O)ccc1O (stereo not given)
3. O=C(NO)c1ccc(C(=O)NO)cc1
4. CCCCCCCCCCCCCCCCCC(=O)NCC(COP(=O)([O-])OCC[N+](C)(C)C)OC (stereo not given)
5. CCN(CC)/C(Cl)=C(Cl)\C(=C1\Nc2ccc(OC)cc21)[N+](=O)[O-]
6. Cc1nc(-[n+]2nc(-c3ccncc3)nn2-c2ccccc2)sc1C

Response:
["> 100 µM (inactive)", "9.16 µM (inactive)", "81.7 µM (inactive)", "15.2 µM (inactive)", "28.6 µM (inactive)", "29.4 µM (inactive)"]

Provide the reported GI50 of each entry below, same order.
1. CN(C)CC1(C)CC/C(=C\c2ccc3c(c2)OCO3)C1=O (stereo not given)
2. CCOC(=O)Nc1cc(NC(/C=N/NC(C)=O)C(=O)OCC)c(OC)cc1NC(C)=O (stereo not given)
3. O=[N+]([O-])c1cc2c(c3nonc13)OCCCCO2
4. NC1=NNC2(C(N)=N1)c1ccccc1-c1ccccc12
5. CCOC(=O)c1c(C)n(Cc2ccccc2)c(=O)c2ccccc2c(=O)c2c(=O)ccc(=O)c1=2

Response:
1. > 100 µM (inactive)
2. > 100 µM (inactive)
3. 8.61 µM (inactive)
4. > 10 µM (inactive)
5. > 100 µM (inactive)

Provide the reported GI50 of each entry below, same order.
1. CC1(C)CCC[C@@]2(C)C1C(=O)[C@@H]1O[C@]1(C)[C@@H]2CO (stereo not given in full)
2. CN(C)Cc1nsc(N(C)C)n1
3. CC1(C)OC(=O)C(=C2CC(c3ccccc3)c3ccccc32)C(=O)O1 (stereo not given)
4. Nc1nc(N)c(-c2ccccc2)c(C(=O)Nc2nccs2)n1
5. COc1cc2c(cc1OC)CC(N=[N+]=[N-])c1cc(OC)c(OC)cc1/C=C\2 (stereo not given)
6. CC(=O)NNc1nc(C)c(C(/C=C/c2ccc(Cl)cc2)=N/NC(=O)C[N+](C)(C)C)s1
7. O=S(=O)(N/N=C/c1cccc(/C=N/NS(=O)(=O)c2ccccc2)c1)c1ccccc1
8. C[N+](C)(C)CC1CCC(C[N+](C)(C)C)C1=O (stereo not given)

Response:
1: 46.2 µM (inactive); 2: > 100 µM (inactive); 3: > 100 µM (inactive); 4: > 100 µM (inactive); 5: 23.8 µM (inactive); 6: > 100 µM (inactive); 7: 39.2 µM (inactive); 8: 9.02 µM (inactive)

Provide the reported GI50 of each entry below, same order.
1. COC(=O)C12C(=O)CC3CCC1C32C(=O)OC (stereo not given)
2. N#CC(C#N)=C(N)/C(C#N)=C/c1ccc(O)c(O)c1
3. CC(CO)CCNc1ncnc2c1ncn2CCC#N (stereo not given)
4. N=c1oc2ccccc2cc1C(=O)Nc1nccs1
5. CC(Cl)CC(=O)OCC1CCCN2CCCCC12 (stereo not given)
6. COC(=O)NC(Cc1ccccc1)NC(C)=O (stereo not given)
7. CC(=O)Nc1ccc(-c2nnc(SCC(=O)Nc3ccccc3[N+](=O)[O-])o2)cc1
8. CCN(CC)/C(SCc1ccccc1)=C(\C(Cl)=C(Cl)Cl)[N+](=O)[O-]

Response:
1. > 100 µM (inactive)
2. 78.9 µM (inactive)
3. > 100 µM (inactive)
4. 31 µM (inactive)
5. > 100 µM (inactive)
6. > 100 µM (inactive)
7. > 100 µM (inactive)
8. 16.3 µM (inactive)

Provide the reported GI50 of each entry below, same order.
1. N[C@@H]1c2c(Br)sc(Br)c2C(=O)[C@H]1Br
2. O=C1c2ccccc2C(=O)c2c(OCC3CO3)ccc(OCC3CO3)c21 (stereo not given)
3. CCCCOc1ccc(/C=C/C2=[N+](CCO)CCO2)cc1
4. CCC1(CC)SCc2nc3ccccc3n21
5. Oc1ccc2c(c1)-c1c(c3cc(O)ccc3n1CCN1CCOCC1)CC2
6. COc1ccc(N2C(=O)C3c4[nH]c5cc(Cl)ccc5c4C4CCC(C(C)(C)C)CC4C3C2=O)cc1 (stereo not given)
7. COC1(OC)N=C(N)C2(C#N)C(C)=C3NCN(C)N=C3C12C#N (stereo not given)

Response:
1: 2.6 µM (inactive); 2: 5.69 µM (inactive); 3: 68.5 µM (inactive); 4: 20.9 µM (inactive); 5: 16.6 µM (inactive); 6: > 100 µM (inactive); 7: > 100 µM (inactive)

Provide the reported GI50 of each entry below, same order.
1. O=[N+]([O-])c1ccc(C2N3CCCCC3[C@@H]3c4[nH]c5ccccc5c4CCN23)cc1 (stereo not given in full)
2. C=CCNS(=O)(=O)c1ncnc2[nH]cnc12

Response:
15 µM (inactive)
> 100 µM (inactive)
